assay: total protein half-life in vivo (active degradation + dilution); higher = more stable protein; conditions: E. coli NCM3722 delta-lon; growth: N-lim chemostat; doubling time 6 h
What total protein half-life in vivo was measured for each of the following?
Form entry: value (h) — number only.

Quick note, total protein half-life in vivo for MRQTKTGILLANLGTPDAPTPEAVKRYLKQFLSDRRVVDTSRLLWWPLLRGVILPLRSPRVAKLYASVWMEGGSPLMVYSRQQQQALAQRLPEMPVALGMSYGSPSLESAVDELLAEHVDHIVVLPLYPQFSCSTVGAVWDELARILARKRSIPGISFIRDYADNHDYINALANSVRASFAKHGEPDLLLLSYHGIPQRYADEGDDYPQRCRTTTRELASALGMAPEKVMMTFQSRFGREPWLMPYTDETLKMLGEKGVGHIQVMCPGFAADCLETLEEIAEQNREVFLGAGGKKYEYIPALNATPEHIEMMANLVAAYR landed at 5.98

Quick note, total protein half-life in vivo for MPKFRVSLFSLALMLAVPFAPQAVAKTAAATTASQPEIASGSAMIVDLNTNKVIYSNHPDLVRPIASISKLMTAMVVLDARLPLDEKLKVDISQTPEMKGVYSRVRLNSEISRKDMLLLALMSSENRAAASLAHHYPGGYKAFIKAMNAKAKSLGMNNTRFVEPTGLSVHNVSTARDLTKLLIASKQYPLIGQLSTTREDMATFSNPTYTLPFRNTNHLVYRDNWNIQLTKTGFTNAAGHCLVMRTVINNKPVALVVMDAFGKYTHFADASRLRTWIETGKVMPVPAAALSYKKQKAAQMAAAGQTAQND [P0AFI5] landed at 2.78

Quick note, total protein half-life in vivo for MKKFAAVIAVMALCSAPVMAAEQGGFSGPSATQSQAGGFQGPNGSVTTVESAKSLRDDTWVTLRGNIVERISDDLYVFKDASGTINVDIDHKRWNGVTVTPKDTVEIQGEVDKDWNSVEIDVKQIRKVNP [P0ADU5] landed at 6.2

Quick note, total protein half-life in vivo for MTPTIELICGHRSIRHFTDEPISEAQREAIINSARATSSSSFLQCSSIIRITDKALREELVTLTGGQKHVAQAAEFWVFCADFNRHLQICPDAQLGLAEQLLLGVVDTAMMAQNALIAAESLGLGGVYIGGLRNNIEAVTKLLKLPQHVLPLFGLCLGWPADNPDLKPRLPASILVHENSYQPLDKGALAQYDEQLAEYYLTRGSNNRRDTWSDHIRRTIIKESRPFILDYLHKQGWATR landed at 4.4

Quick note, total protein half-life in vivo for MQTEHVILLNAQGVPTGTLEKYAAHTADTRLHLAFSSWLFNAKGQLLVTRRALSKKAWPGVWTNSVCGHPQLGESNEDAVIRRCRYELGVEITPPESIYPDFRYRATDPSGIVENEVCPVFAARTTSALQINDDEVMDYQWCDLADVLHGIDATPWAFSPWMVMQATNREARKRLSAFTQLK landed at 4.68

Quick note, total protein half-life in vivo for MAAINTKVKKAVIPVAGLGTRMLPATKAIPKEMLPLVDKPLIQYVVNECIAAGITEIVLVTHSSKNSIENHFDTSFELEAMLEKRVKRQLLDEVQSICPPHVTIMQVRQGLAKGLGHAVLCAHPVVGDEPVAVILPDVILDEYESDLSQDNLAEMIRRFDETGHSQIMVEPVADVTAYGVVDCKGVELAPGESVPMVGVVEKPKADVAPSNLAIVGRYVLSADIWPLLAKTPPGAGDEIQLTDAIDMLIEKETVEAYHMKGKSHDCGNKLGYMQAFVEYGIRHNTLGTEFKAWLEEEMGIKK [P0AEP3] landed at 5.41

Quick note, total protein half-life in vivo for MEALGMIETRGLVALIEASDAMVKAARVKLVGVKQIGGGLCTAMVRGDVAACKAATDAGAAAAQRIGELVSVHVIPRPHGDLEEVFPIGLKGDSSNL [P0ABF4] landed at 4.82
